Numbers sourced from patent US20200024348A1.

As shown below, each of these binders has a reported koff value.
# TARGET DESC: T1, histidine-tagged human SORT1 (R&D Systems) (human, UniProt Q99523 78-755)
# T1 construct: Bought recombinant protein; also called His-tagged human SORT1; not shown: histidine tag
# T1 sequence: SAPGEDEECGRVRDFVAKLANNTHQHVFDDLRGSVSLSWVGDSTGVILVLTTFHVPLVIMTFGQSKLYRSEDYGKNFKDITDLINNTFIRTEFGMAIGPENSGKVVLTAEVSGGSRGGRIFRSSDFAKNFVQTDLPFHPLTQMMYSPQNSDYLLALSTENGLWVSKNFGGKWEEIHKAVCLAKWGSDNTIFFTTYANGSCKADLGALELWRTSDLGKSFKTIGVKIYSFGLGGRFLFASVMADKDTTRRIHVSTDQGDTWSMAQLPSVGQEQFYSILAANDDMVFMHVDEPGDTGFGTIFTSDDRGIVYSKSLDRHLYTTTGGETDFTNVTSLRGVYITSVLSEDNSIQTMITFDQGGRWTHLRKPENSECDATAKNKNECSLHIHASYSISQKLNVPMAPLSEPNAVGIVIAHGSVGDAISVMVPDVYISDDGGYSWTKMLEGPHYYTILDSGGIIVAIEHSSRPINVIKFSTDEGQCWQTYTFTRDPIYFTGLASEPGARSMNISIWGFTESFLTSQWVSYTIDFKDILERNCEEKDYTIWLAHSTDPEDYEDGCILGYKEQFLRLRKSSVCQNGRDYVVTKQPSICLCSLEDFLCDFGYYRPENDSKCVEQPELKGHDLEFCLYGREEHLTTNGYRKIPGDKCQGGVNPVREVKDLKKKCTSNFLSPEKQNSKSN
# RUN DESCRIPTION: BLI (Octet RED96), antibody captured on anti-human IgG Fc sensor, 20 nM His-tagged human SORT1, 1:1 fit
MEASUREMENT LABEL: koff (s⁻¹)

BINDER: S-60-15.16 [N33M] (antibody, human IgG1, kappa, L234A L235A, V domains shown, huIgG1 LALAPS) VH: QVQLQESGPGLVKPSETLSLTCAVSGYSISSGYYWGWIRQPPGKGLEWIGTIYHSGSTYYNPSLKSRVTISVDTSKNQFSLKLSSVTAADTAVYYCARQGSIKQGYYGMDVWGQGTTVTVSS VL: DIVMTQSPLSLPVTPGEPASISCRSSQSLLRSMGYNYLDWYLQKPGQSPQLLIYLGSNRASGVPDRFSGSGSGTDFTLKISRAEAEDVGVYYCMQQQEAPLTFGGGTKVEIKR
MEASUREMENT LABEL: koff
RESULT: 0.000423
--
BINDER: S-60-15.14 [N33V] (antibody, human IgG1, kappa, L234A L235A, V domains shown, huIgG1 LALAPS) VH: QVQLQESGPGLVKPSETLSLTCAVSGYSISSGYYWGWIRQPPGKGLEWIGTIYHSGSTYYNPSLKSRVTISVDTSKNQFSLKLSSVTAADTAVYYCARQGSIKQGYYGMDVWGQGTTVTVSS VL: DIVMTQSPLSLPVTPGEPASISCRSSQSLLRSVGYNYLDWYLQKPGQSPQLLIYLGSNRASGVPDRFSGSGSGTDFTLKISRAEAEDVGVYYCMQQQEAPLTFGGGTKVEIKR
MEASUREMENT LABEL: koff
RESULT: 0.000306
--
BINDER: S-60-15.17 [N33L] (antibody, human IgG1, kappa, L234A L235A, V domains shown, huIgG1 LALAPS) VH: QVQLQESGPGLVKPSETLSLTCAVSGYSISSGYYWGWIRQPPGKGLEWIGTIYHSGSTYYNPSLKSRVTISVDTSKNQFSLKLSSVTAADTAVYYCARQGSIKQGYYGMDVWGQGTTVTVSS VL: DIVMTQSPLSLPVTPGEPASISCRSSQSLLRSLGYNYLDWYLQKPGQSPQLLIYLGSNRASGVPDRFSGSGSGTDFTLKISRAEAEDVGVYYCMQQQEAPLTFGGGTKVEIKR
MEASUREMENT LABEL: koff
RESULT: 0.000425
--
BINDER: S-60-15.7 [N33K] (antibody, human IgG1, kappa, L234A L235A, V domains shown, huIgG1 LALAPS) VH: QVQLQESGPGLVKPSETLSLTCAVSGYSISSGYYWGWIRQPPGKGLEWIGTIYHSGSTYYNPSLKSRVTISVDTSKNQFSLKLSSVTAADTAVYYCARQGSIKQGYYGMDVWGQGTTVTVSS VL: DIVMTQSPLSLPVTPGEPASISCRSSQSLLRSKGYNYLDWYLQKPGQSPQLLIYLGSNRASGVPDRFSGSGSGTDFTLKISRAEAEDVGVYYCMQQQEAPLTFGGGTKVEIKR
MEASUREMENT LABEL: koff
RESULT: 0.000547
--
BINDER: S-60-15.4 [N33R] (antibody, human IgG1, kappa, L234A L235A, V domains shown, huIgG1 LALAPS) VH: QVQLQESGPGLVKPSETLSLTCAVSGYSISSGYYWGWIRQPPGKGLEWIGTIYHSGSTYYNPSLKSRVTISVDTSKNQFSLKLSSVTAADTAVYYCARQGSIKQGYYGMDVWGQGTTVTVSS VL: DIVMTQSPLSLPVTPGEPASISCRSSQSLLRSRGYNYLDWYLQKPGQSPQLLIYLGSNRASGVPDRFSGSGSGTDFTLKISRAEAEDVGVYYCMQQQEAPLTFGGGTKVEIKR
MEASUREMENT LABEL: koff
RESULT: 0.00046
--
BINDER: S-60-15.9 [N33Y] (antibody, human IgG1, kappa, L234A L235A, V domains shown, huIgG1 LALAPS) VH: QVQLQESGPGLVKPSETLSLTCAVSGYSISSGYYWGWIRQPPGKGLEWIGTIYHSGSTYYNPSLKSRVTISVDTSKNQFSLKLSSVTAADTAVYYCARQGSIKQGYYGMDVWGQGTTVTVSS VL: DIVMTQSPLSLPVTPGEPASISCRSSQSLLRSYGYNYLDWYLQKPGQSPQLLIYLGSNRASGVPDRFSGSGSGTDFTLKISRAEAEDVGVYYCMQQQEAPLTFGGGTKVEIKR
MEASUREMENT LABEL: koff
RESULT: 0.000675
